For each entry below, report its viscosity value.
Assay: xn = mol fraction of the nth substance listed
Settings: 308.15 K; 101 kPa; Liquid; Capillary tube (Ostwald / Ubbelohde) method; x1 = 0.8
± gives the expanded uncertainty stated by the source.

Recorded viscosity for COC(=O)CCCCl [methyl 4-chlorobutanoate] + Cc1ccccc1 , please? 1.062 ± 0.009 mPa·s

Moving on to COC(=O)CCCCl [methyl 4-chlorobutanoate] + Cc1ccccc1C 1.12 ± 0.009 mPa·s

And then COC(=O)CCCCl [methyl 4-chlorobutanoate] + c1ccccc1 , what is it? 1.08 ± 0.009 mPa·s

Please answer likewise for COC(=O)CCCCl [methyl 4-chlorobutanoate] + Cc1ccc(C)cc1 1.077 ± 0.009 mPa·s

meta.source: the NIST ThermoML archive (doi:10.1021/je900194v)
